meta.source: ChEMBL document CHEMBL3414445

assay: Stability in Sprague-Dawley rat liver microsomes assessed as parent compound remaining at 2 uM measured 30 mins after microsomal reactions termination at pH 7.4 pre-incubated in presence of NADPH regenerating system by LC-MS method; type: ADME; details: read-out: Stability
Exercise: for every item that follows, state its recorded remaining at 0.5 h, 2 µM.
Give your result in % as a bare value.

Looking up COc1cc2c(cc1OC)C(=O)C(CC1CCN(Cc3ccccc3)CC1)C2 (configuration not stated) , I see its remaining at 0.5 h, 2 µM listed as 76.2

Looking up "COc1cc(/C=C2\Oc3cc(OCCN4CCCCC4)ccc3C2=O)cc(OC)c1OC" , I see its remaining at 0.5 h, 2 µM listed as 61.9

----------
assay: Selectivity index, ratio of IC50 for equine serum butyrylcholine esterase to IC50 for electric eel AChE
MEASURED_ATTRIBUTE: Ratio IC50
Lab note: record just the number, no unit beside it.

Looking up "COc1cc(/C=C2\Oc3cc(OCCN4CCCCC4)ccc3C2=O)cc(OC)c1OC" , I see its Ratio IC50 listed as 14.6

Looking up "COc1ccc2c(c1)O/C(=C\c1ccc(OCCN3CCCCC3)cc1Cl)C2=O" , I see its Ratio IC50 listed as 22.2

Looking up "O=C1/C(=C/c2ccc(OCCN3CCCC3)cc2Cl)Oc2cc(O)ccc21" , I see its Ratio IC50 listed as 9.89

Looking up "COc1ccc2c(c1)O/C(=C\c1ccc(OCCCN(C)C)cc1Cl)C2=O" , I see its Ratio IC50 listed as 2.26

Looking up "COc1ccc2c(c1)O/C(=C\c1ccc(OCCN3CCCCC3)c(Cl)c1)C2=O" , I see its Ratio IC50 listed as 49.4

Looking up "COc1ccc2c(c1)O/C(=C\c1ccc(OCCCN(C)C)cc1)C2=O" , I see its Ratio IC50 listed as 12.5

Looking up "O=C1/C(=C/c2ccc(OCCN3CCCC3)c(Cl)c2)Oc2cc(O)ccc21" , I see its Ratio IC50 listed as 34.3

Looking up "COc1ccc(/C=C2\Oc3cc(OCCCN(C)C)ccc3C2=O)cc1" , I see its Ratio IC50 listed as 1.99

Looking up "COc1cc(/C=C2\Oc3cc(OCCN(C)C)ccc3C2=O)cc(OC)c1OC" , I see its Ratio IC50 listed as 4.26

Looking up "COc1ccc2c(c1)O/C(=C\c1ccc(OCCN3CCCC3)cc1)C2=O" , I see its Ratio IC50 listed as 18.7

Looking up "COc1ccc(/C=C2\Oc3cc(OCCN4CCCC4)ccc3C2=O)cc1" , I see its Ratio IC50 listed as 6.1

Looking up "CCN(CC)C(=O)Oc1ccc2c(c1)O/C(=C\c1ccc(OCCN(C)C)cc1)C2=O" , I see its Ratio IC50 listed as 1.78

Looking up "COc1ccc(/C=C2\Oc3cc(OCCN(C)C)ccc3C2=O)cc1" , I see its Ratio IC50 listed as 2.1

Looking up "CCN(CC)C(=O)Oc1ccc2c(c1)O/C(=C\c1ccc(OCCCN(C)C)cc1)C2=O" , I see its Ratio IC50 listed as 1.85

Looking up "COc1ccc(/C=C2\Oc3cc(OCCN4CCCCC4)ccc3C2=O)cc1" , I see its Ratio IC50 listed as 8.13

Looking up "CCN(CC)C(=O)Oc1ccc2c(c1)O/C(=C\c1ccc(OCCN3CCCCC3)cc1)C2=O" , I see its Ratio IC50 listed as 11

Looking up "COc1cc(/C=C2\Oc3cc(OCCN4CCCC4)ccc3C2=O)cc(OC)c1OC" , I see its Ratio IC50 listed as 18.2

Looking up "COc1ccc2c(c1)O/C(=C\c1ccc(OCCN3CCCCC3)cc1)C2=O" , I see its Ratio IC50 listed as 25.5

Looking up "CCN(CC)C(=O)Oc1ccc2c(c1)O/C(=C\c1ccc(OCCN3CCCC3)cc1)C2=O" , I see its Ratio IC50 listed as 9.5

Looking up "COc1ccc2c(c1)O/C(=C\c1ccc(N(C)C)cc1)C2=O" , I see its Ratio IC50 listed as 0.63

Looking up "COc1ccc2c(c1)O/C(=C\c1ccc(OCCN(C)C)c(Cl)c1)C2=O" , I see its Ratio IC50 listed as 8.35
